target_system: WRN helicase (aa N517-P1238) (Homo sapiens)
Construct: The core helicase motif of the WRN protein (aa N517-P1238) was produced for this assay; His (N); ZZ (N); 3C protease cleavage site (N); virus and BIICs made in SF9)
Sequence (Q14191 517-1238): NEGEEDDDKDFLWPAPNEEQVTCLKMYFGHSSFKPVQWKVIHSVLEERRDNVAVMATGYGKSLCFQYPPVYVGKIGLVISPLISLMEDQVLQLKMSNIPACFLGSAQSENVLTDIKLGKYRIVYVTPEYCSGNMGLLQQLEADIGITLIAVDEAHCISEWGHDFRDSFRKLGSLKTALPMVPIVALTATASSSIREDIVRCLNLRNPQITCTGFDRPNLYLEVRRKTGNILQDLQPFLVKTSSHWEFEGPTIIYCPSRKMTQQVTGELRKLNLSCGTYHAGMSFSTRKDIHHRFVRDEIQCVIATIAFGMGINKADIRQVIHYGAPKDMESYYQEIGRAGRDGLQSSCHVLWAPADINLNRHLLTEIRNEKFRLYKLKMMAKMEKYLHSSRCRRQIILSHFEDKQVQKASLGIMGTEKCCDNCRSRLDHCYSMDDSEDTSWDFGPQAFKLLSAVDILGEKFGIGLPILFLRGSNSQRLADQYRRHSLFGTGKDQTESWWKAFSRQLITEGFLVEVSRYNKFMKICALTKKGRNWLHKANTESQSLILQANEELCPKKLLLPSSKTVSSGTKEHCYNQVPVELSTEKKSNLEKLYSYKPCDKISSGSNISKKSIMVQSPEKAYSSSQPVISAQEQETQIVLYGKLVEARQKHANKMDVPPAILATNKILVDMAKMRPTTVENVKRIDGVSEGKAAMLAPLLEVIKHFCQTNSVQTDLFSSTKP
run_description: WRN ATPase assay (DNA dependent ATP hydrolysis, ADP-Glo)
protocol_conditions: 3 hours pre-incubation, 300 micromolar ATP, FLAP26 DNA; geometric mean of at least 2
measured_attribute: pIC50
Hey, just a heads up that pIC50 is the negative log base 10 of the concentration in molar.

[[record]]
compound = "CCc1c(N2CCN(C(=O)c3c(O)ccc4ccncc34)CC2)c(=O)n2nc(C3=CCOCC3)nc2n1CC(=O)Nc1ccc(C(F)(F)F)cc1C [Example 40]"
recorded_value = 7.40

[[record]]
compound = "Cc1c(N2CCN(C(=O)c3cnccc3O)CC2)c(=O)n2nc(N3CCOCC3)nc2n1CC(=O)Nc1ccc(C(F)(F)F)cc1 [Example 152]"
recorded_value = 6.30

[[record]]
compound = "Cc1c(N2CCN(C(=O)c3ccc(F)c(F)c3O)CC2)c(=O)n2nc(C3=CCOCC3)nc2n1CC(=O)Nc1ccc(C(F)(F)F)cc1 [Example 16]"
recorded_value = 7.30

[[record]]
compound = "CCc1c(C2=CCN(C(C)=O)CC2)c(=O)n2nc(C3=CCCCO3)nc2n1CC(=O)Nc1ccc(C(F)(F)F)cc1 [Example 142]"
recorded_value = 6.22

[[record]]
compound = "CC(=O)N1CCN(c2c(C)n(CC(=O)Nc3ccc(Cl)cc3)c3nc(C4=CCCCO4)nn3c2=O)CC1 [Example 79]"
recorded_value = 6.70

[[record]]
compound = "CCc1c(N2CCN(C(=O)C3CCOC3)CC2)c(=O)n2nc(C3=CCCCO3)nc2n1CC(=O)Nc1ccc(C(F)(F)F)cc1 (stereo not shown) [Example 60]"
recorded_value = 6.52


Could you tell me which pIC50 is on file for CC(=O)N1CCN(c2c(C)n(CC(=O)Nc3ccc(C(F)(F)F)nc3Cl)c3nc(C4=CCOCC4)nn3c2=O)CC1 [Example 98] ?
6.00

Could you tell me which pIC50 is on file for CC(=O)N1CCN(c2c(C)n(CC(=O)Nc3ccc(Cl)cc3)c3nc(-c4ccccc4)nn3c2=O)CC1 [Example 3] ?
7.00

Could you tell me which pIC50 is on file for Cc1c(N2CCN(C(=O)NNC(=O)C(F)(F)F)CC2)c(=O)n2nc(C3=CCOCC3)nc2n1CC(=O)Nc1ccc(C(F)(F)F)cc1 [Example 165] ?
7.05

Could you tell me which pIC50 is on file for CC(=O)N1CCN(c2c(C)n(CC(=O)Nc3cc(F)c(C(F)(F)F)cc3Cl)c3nc(C4=CCOCC4)nn3c2=O)CC1 [Example 91] ?
6.15

Could you tell me which pIC50 is on file for CON1CCN(c2nc3n(CC(=O)Nc4ccc(C(F)(F)F)cc4)c(C)c(N4CCN(C(C)=O)CC4)c(=O)n3n2)CC1 [Example 132] ?
5.70

Could you tell me which pIC50 is on file for Cc1ccnc(O)c1C(=O)N1CCN(c2c(C)n(CC(=O)Nc3ccc(C(F)(F)F)cc3)c3nc(C4=CCOCC4)nn3c2=O)CC1 [Example 27] ?
6.52

Could you tell me which pIC50 is on file for CC(=O)N1CCN(c2c(C)n(CC(=O)Nc3ccc(C(F)(F)F)cc3)c3nc(C4=CCC(F)(F)CC4)nn3c2=O)CC1 [Example 118] ?
6.22
